Source of measurements: patent US20180282279A1

Consider the following compounds and their measured AUC(0-inf) readings.
# Test: Pharmacokinetic study in rats
# Format: in vivo
# Condition label: rat, blood, 50 mg/kg in saline, oral administration
# Experimental: To address the question if increased stability would also lead to improved bioavailability in vivo, a pharmacokinetic study was performed. […] The concentrations of the compounds were analyzed by LC-MS/MS (AB Sciex API-4000 system). Data were analyzed by the Non-compartmental analysis tool of Phoenix WinNonlin (Version 6.3).
Value expressed in ng·h/mL; do not type the unit.

Structure smiles	Output unit	AUC(0-inf)
CCCCCC(=O)NCCNC(=O)[C@H](O)C(C)(C)CO	ng·h/mL	11600

Now look at this entry.
Could you share which AUC(0-inf) value was measured for "CC(C)(CO)[C@@H](O)C(=O)NCCNC(=O)CCc1ccccc1" ?
6620
